Values were extracted from paper PMC2780016.

target.system: human liver CE, hCE1 (CES1) (Homo sapiens, UniProt P23141)
Sequence (P23141 18-567): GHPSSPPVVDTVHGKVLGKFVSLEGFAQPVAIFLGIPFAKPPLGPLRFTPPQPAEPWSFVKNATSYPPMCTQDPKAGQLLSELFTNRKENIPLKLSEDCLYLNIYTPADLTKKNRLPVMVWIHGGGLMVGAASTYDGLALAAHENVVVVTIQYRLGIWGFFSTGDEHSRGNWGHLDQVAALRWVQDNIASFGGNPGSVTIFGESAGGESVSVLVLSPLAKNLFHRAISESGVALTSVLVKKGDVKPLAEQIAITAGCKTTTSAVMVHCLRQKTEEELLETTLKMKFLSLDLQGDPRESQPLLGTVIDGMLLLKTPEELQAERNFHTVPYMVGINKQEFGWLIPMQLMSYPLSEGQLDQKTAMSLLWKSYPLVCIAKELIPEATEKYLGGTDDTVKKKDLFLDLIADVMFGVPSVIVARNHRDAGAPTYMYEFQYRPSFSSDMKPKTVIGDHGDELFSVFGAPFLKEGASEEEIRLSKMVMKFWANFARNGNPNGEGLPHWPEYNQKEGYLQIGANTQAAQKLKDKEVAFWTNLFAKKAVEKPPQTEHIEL
method.description: Inhibition of hCE1 hydrolysis of 3
Type: biochemical
assay.context: substrate 3

- test.smiles: "CNC(=O)c1ccc(S(=O)(=O)Nc2ccc(NS(=O)(=O)c3ccc(F)cc3)cc2)cc1"
  inhibition of hCE1 (in words): "inactive"
- test.smiles: "O=C(O)c1ccc(S(=O)(=O)Nc2ccc(NS(=O)(=O)c3ccc(F)cc3)cc2)cc1"
  inhibition of hCE1 (in words): "inactive"
- test.smiles: "O=S(=O)(Nc1ccc(NS(=O)(=O)c2cc(Cl)c(Cl)cc2Cl)cc1)c1cc(Cl)c(Cl)cc1Cl"
  inhibition of hCE1 (in words): "inactive"
